Numbers sourced from patent US11839613B2.

# Study System: EP4 (Homo sapiens (Human))
# Sequence (P35408 whole entry): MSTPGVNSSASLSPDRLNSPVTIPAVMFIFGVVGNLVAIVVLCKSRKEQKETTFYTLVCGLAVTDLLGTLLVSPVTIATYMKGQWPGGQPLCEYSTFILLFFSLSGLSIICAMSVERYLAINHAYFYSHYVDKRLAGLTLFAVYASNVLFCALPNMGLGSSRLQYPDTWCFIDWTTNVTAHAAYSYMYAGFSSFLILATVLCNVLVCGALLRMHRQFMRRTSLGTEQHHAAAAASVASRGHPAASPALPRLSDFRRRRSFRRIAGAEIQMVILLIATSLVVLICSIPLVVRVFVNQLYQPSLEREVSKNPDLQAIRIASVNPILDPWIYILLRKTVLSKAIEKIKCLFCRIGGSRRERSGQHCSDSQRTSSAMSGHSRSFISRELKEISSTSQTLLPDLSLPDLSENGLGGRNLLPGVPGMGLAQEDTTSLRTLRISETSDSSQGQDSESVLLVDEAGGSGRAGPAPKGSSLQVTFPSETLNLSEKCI
# Assay Details: hEP4 cAMP assay (BT549 breast cancer cells, HTRF cAMP)
# Type: cell-based
# Condition Description: antagonistic activity, PGE2 6 nM
Recorded IC50 by entry
Parameter: IC50

INSERT INTO measurements (compound, study_system, parameter, result_value) VALUES
  ('CCOc1cc(-c2cc(NCCc3c(C#N)cc4ccccc4c3C)ncn2)ccc1C(=O)O [Ex 54]', 'EP4 (Homo sapiens (Human))', 'IC50', '27 nM'),
  ('CCOc1cc(-c2cc(NCCc3cc4ccn(C)c4cc3F)ncn2)sc1C(=O)O [Ex 16]', 'EP4 (Homo sapiens (Human))', 'IC50', '8 nM'),
  ('CCOc1cc(-c2cc(NCCc3cc4c(cc3F)OCCN4C)ncn2)sc1C(=O)O [Ex 104]', 'EP4 (Homo sapiens (Human))', 'IC50', '71 nM'),
  ('O=C(O)c1ccc(-c2cc(NCCc3ccc4c(c3)CCC4)ncn2)cc1OC1CCC1 [Ex 206]', 'EP4 (Homo sapiens (Human))', 'IC50', '248 nM'),
  ('CSc1cc(-c2cc(NCCc3ccc4sccc4c3C)ncn2)ccc1CC(=O)O [Ex 326]', 'EP4 (Homo sapiens (Human))', 'IC50', '910 nM'),
  ('CCOc1cc(-c2cc(NCCc3cc4cccnc4c(C)c3Cl)ncn2)sc1C(=O)O [Ex 87]', 'EP4 (Homo sapiens (Human))', 'IC50', '51 nM');

* * *

# Study System: PTGER4 (EP4) (Homo sapiens (Human))
Parameter: log10 of IC50 (log10 of the value in nM)

INSERT INTO results (compound_string, result_value) VALUES
  ('O=C(O)c1ccc(-c2cc(NCCc3ccc4cccc(F)c4c3)ncn2)cc1OC1CCC1', 2.46),
  ('CCOc1cc(-c2cc(NCCc3c(C#N)cc4ccccc4c3F)ncn2)ccc1C(=O)O', 1.96),
  ('CSc1cc(-c2cc(NCCc3cc4ccsc4cc3C)ncn2)ccc1CC(=O)O', 3.13),
  ('CCOc1cc(-c2cc(NCCc3cc4c(cc3OC)OCCO4)ncn2)ccc1OCC(=O)O', 1.79),
  ('CCOc1cc(-c2cc(NCCc3cc4ccccc4cc3C#N)ncn2)ccc1C(=O)O', 2.02),
  ('CCOc1cc(-c2cc(NCCc3cc4cnccc4cc3F)ncn2)sc1C(=O)O', 2.13),
  ('CCOc1cc(-c2cc(NCCc3cc4cccnc4c(C)c3Cl)ncn2)ccc1OCC(=O)O', 2.49),
  ('CCOc1cc(-c2cc(NCCc3cc4ccsc4cc3C#N)ncn2)ccc1CC(=O)O', 2.11),
  ('CCOc1cc(-c2cc(NCCc3c(OC)cc4ccccc4c3C)ncn2)ccc1CC(=O)O', 1.45),
  ('CCOc1cc(-c2cc(NCCc3cc4ccsc4cc3OC)ncn2)ccc1OCC(=O)O', 1.51),
  ('CCOc1cc(-c2cc(NCCc3ccc4sncc4c3)ncn2)sc1C(=O)O', 2.24);

* * *

# Study System: UniProtKB P43116
# Sequence (P43116 whole entry): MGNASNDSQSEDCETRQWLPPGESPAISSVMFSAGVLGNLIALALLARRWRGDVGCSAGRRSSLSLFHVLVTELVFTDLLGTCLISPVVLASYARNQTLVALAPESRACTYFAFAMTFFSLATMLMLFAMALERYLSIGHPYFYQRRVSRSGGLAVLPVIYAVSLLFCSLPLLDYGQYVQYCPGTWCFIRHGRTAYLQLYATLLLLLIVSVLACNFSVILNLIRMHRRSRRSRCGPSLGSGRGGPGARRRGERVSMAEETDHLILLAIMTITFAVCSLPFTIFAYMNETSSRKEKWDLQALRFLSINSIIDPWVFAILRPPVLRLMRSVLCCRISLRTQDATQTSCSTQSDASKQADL
# Assay Details: hEP2 b-arrestin assay (PathHunter HEK 293 PTGER2 b-arrestin cells)
# Condition Description: antagonistic activity, beta-arrestin assay; read-out: hEP2 b-arr IC50
Criterion: IC50 strictly under 200 nM. Met: Criterion met. Not met: Criterion not met.

INSERT INTO measurements (compound_string, assigned_label) VALUES
  ('CCOc1nc(-c2cc(NCCc3ccc4ccccc4c3C)ncn2)sc1C(=O)O', 'Criterion met'),
  ('CCOc1cc(-c2cc(NCCc3ccc4c(c3C)OCCO4)ncn2)ccc1CC(=O)O', 'Criterion met'),
  ('CCOc1cc(-c2cc(NCCc3ccc4sccc4c3)ncn2)ccc1C(=O)O', 'Criterion not met'),
  ('CCOc1cc(-c2cc(NCCc3cc4ccsc4c(F)c3OC)ncn2)sc1C(=O)O', 'Criterion met'),
  ('O=C(O)c1ccc(-c2cc(NCCc3c(F)cc4ccccc4c3F)ncn2)cc1OC1CCC1', 'Criterion not met'),
  ('C=C(C(=O)O)c1ccc(-c2cc(NCCc3cc4c(cc3OC)OCCO4)ncn2)cc1', 'Criterion not met'),
  ('Cc1cc(-c2cc(NCCc3cc(F)c4sccc4c3)ncn2)ccc1C(=O)O', 'Criterion not met'),
  ('CCOc1cc(-c2cc(NCCc3ccc4sccc4c3C)ncn2)ccc1C(=O)O', 'Criterion met'),
  ('COc1cc2ccccc2c(C)c1CCNc1cc(-c2ccc(CC(=O)O)c(SC)c2)ncn1', 'Criterion met'),
  ('CCOc1cc(-c2cc(NCCc3ccc4ccccc4c3C)ncn2)ccc1-c1noc(=S)[nH]1', 'Criterion met'),
  ('CCOc1cc(-c2cc(NCCc3cc4ccccc4cc3OC)ncn2)sc1C(=O)O', 'Criterion met'),
  ('O=C(O)c1cccc2cc(-c3cc(NCCc4cc(F)c5sccc5c4)ncn3)[nH]c12', 'Criterion not met'),
  ('CCCOc1cc(-c2cc(NCCc3cc4c(cc3OC)OCCO4)ncn2)ccc1CC(=O)O', 'Criterion met'),
  ('CCOc1cc(-c2cc(NCCc3ccc4sccc4c3C)ncn2)ccc1CC(=O)O', 'Criterion met'),
  ('CCOc1cc(-c2cc(NCCc3ccc4sccc4c3F)ncn2)cc(F)c1CC(=O)O', 'Criterion not met'),
  ('COc1cc2c(cc1CCNc1cc(-c3ccc(C(=O)O)c(OC4CCC4)c3)ncn1)OCO2', 'Criterion met'),
  ('CCCn1cc(-c2cc(NCCc3cc(F)c4sccc4c3)ncn2)cc1C(=O)O', 'Criterion not met'),
  ('CC(C)Oc1cc(-c2cc(NCCc3ccc4sccc4c3F)ncn2)ccc1CC(=O)O', 'Criterion not met'),
  ('Cc1c(CCNc2cc(-c3ccc(C(=O)O)c(OC(F)F)c3)ncn2)ccc2ccccc12', 'Criterion not met'),
  ('CCOc1cc(-c2cc(NCCc3cc4ccoc4cc3F)ncn2)ccc1OCC(=O)O', 'Criterion met'),
  ('COc1cc(-c2cc(NCCc3c(OC)cc4c(c3C)OCCO4)ncn2)ccc1CC(=O)O', 'Criterion met'),
  ('O=C(O)c1ccc(-c2cc(NCCc3ccc4cc[nH]c4c3)ncn2)cc1OC1CCC1', 'Criterion not met');

* * *

# Study System: PTGER4 (EP4) (Homo sapiens (Human), UniProt P35408)
# Sequence (P35408 whole entry): as the sequence (P35408 whole entry) above
# Assay Details: cell-based
Parameter: IC50 (nM)

INSERT INTO measurements (compound_string, result_value) VALUES
  ('O=C(O)c1ccc(-c2cc(NCCc3ccc4sccc4c3)ncn2)cc1OC1CCC1', 226),
  ('O=C(O)c1cc2cc(-c3cc(NCCc4ccc5sccc5c4)ncn3)ccc2o1', 123),
  ('CCOc1cc(-c2cc(NCCc3cc(C(F)(F)F)c4sccc4c3)ncn2)sc1C(=O)O', 45),
  ('CCCc1cc(-c2cc(NCCc3cc(F)c4sccc4c3)ncn2)cc(OCC)c1C(=O)O', 867),
  ('COc1cc2c(cc1CCNc1cc(-c3ccc(CC(=O)O)c(OC(C)C)c3)ncn1)OCCO2', 195),
  ('CCOc1cc(-c2cc(NCCc3ccc4c(ccn4C)c3)ncn2)sc1C(=O)O', 33),
  ('COc1cc2c(cc1CCNc1cc(-c3ccc(CC(=O)O)c(OC(F)F)c3)ncn1)OCCO2', 204),
  ('C#Cc1cc2c(cc1CCNc1cc(-c3ccc(CC(=O)O)c(OC)c3)ncn1)OCCO2', 157),
  ('CCOc1cc2c(cc1CCNc1cc(-c3ccc(CC(=O)O)c(OC(C)C)c3)ncn1)OCCO2', 152),
  ('CCOc1cc(-c2cc(NCCc3ccc4[nH]ccc4c3)ncn2)sc1C(=O)O', 56),
  ('CCOc1cc(-c2cc(NCCc3ccc4ccccc4c3C)ncn2)sc1C(=O)O', 14),
  ('CCCc1cc(-c2cc(NCCc3cc4ccsc4c(F)c3OC)ncn2)ccc1C(=O)O', 115),
  ('COc1cc2c(c(C)c1CCNc1cc(-c3ccc(C(=O)O)c(OC(C)C)c3)ncn1)OCCO2', 87);
